Assignment: determine reported Ki for the given compounds.
biological target: hMCHR (MCH receptor) (Homo sapiens, UniProt Q99705); construct: (or internally produced); host or cells: CHO (Chinese hamster ovary) cells, membrane preparation; assay: MCH Assay PCOP Protocol ([125I]-MCH SPA binding to hMCHR-CHO membranes); settings: [125I]-MCH binding to hMCHR-CHO membranes; class symbols for ranges of Ki; read-out: Activity (Ki range);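 note: A 0.4–50 nM B 51–500 nM C 501–2500 nM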
Sequence (Q99705 whole entry): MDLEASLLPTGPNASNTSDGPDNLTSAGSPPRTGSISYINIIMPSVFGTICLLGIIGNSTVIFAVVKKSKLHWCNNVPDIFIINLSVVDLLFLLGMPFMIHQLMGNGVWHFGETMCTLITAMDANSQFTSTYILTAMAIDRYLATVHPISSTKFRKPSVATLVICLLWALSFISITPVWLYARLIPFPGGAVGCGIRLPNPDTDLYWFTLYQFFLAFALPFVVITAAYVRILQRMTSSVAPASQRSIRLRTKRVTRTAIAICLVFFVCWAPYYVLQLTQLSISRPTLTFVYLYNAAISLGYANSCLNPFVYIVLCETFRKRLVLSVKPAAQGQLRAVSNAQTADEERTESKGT

[in] Look up Ki of O=C(NCC(CCN1CCCC1)c1ccc(Cl)c(Cl)c1)Nc1cccc(C(F)(F)F)c1 (stereo not shown) [Example 299] and report it.
[out] 0.501 to 2.5 µM

[in] Look up Ki of Cc1ccc(C(CCNc2c(C)noc2C)CNC(=O)Nc2cc(Cl)cc(Cl)c2)cc1 (stereo not shown) [Example 275] and report it.
[out] 0.501 to 2.5 µM

[in] Look up Ki of O=C(NCC(CCNCCc1ccc(O)cc1)c1ccc(Cl)c(Cl)c1)c1cc(C(F)(F)F)cc(C(F)(F)F)c1 (stereo not shown) [Example 392] and report it.
[out] 0.051 to 0.5 µM

[in] Look up Ki of CN(C)CCCNCCC(CNC(=O)Nc1cc(Cl)cc(Cl)c1)c1ccc(-c2cccc(C#N)c2)cc1 (stereo not shown) [Example 218] and report it.
[out] 0.0004 to 0.05 µM
